Across several publications, the following pIC50 results were reported for human LCE (Homo sapiens, UniProt Q9H5J4).
pIC50: −log10 of the molar value.
Short version: pIC50 at least 6 is MET, less is NOT MET.

- CC(C)Oc1ccc(C(=O)NCC2(c3ccccc3)CCCN(S(=O)(=O)c3ccccn3)C2)nc1 (stereo not shown): MET
- CC(C)c1ccc(NC(=O)c2cccc(S(=O)(=O)N3CCCCCC3)c2)cc1: MET
- CC(C)Oc1ccc(NC(=O)[C@@H]2C[C@@H]3CC[C@H]2N(S(=O)(=O)c2cn(C)cn2)C3)nc1 (relative stereo): MET
- CC(=O)c1ccc(NC(=O)c2cccc(S(=O)(=O)N3CCCCC3)c2)cc1: NOT MET
- CC(C)Oc1ccc(NC(=O)c2cccc(S(=O)(=O)c3ccccn3)c2)nc1: MET
- COc1ccccc1NC(=O)c1cccc(S(=O)(=O)N2CCCC(C(N)=O)C2)c1 (stereo not shown): MET
- Cc1[nH]n(-c2ccc(C(C)(C)C)cc2)c(=O)c1C1(C(F)(F)F)C(=O)N(c2ccccc2)C2=C1C(=O)CC(C)(C)C2 (stereo not shown): MET
- CC(C)Oc1cc(NC(=O)[C@@H]2C[C@@H]3CC[C@H]2N(S(=O)(=O)c2cn(C)cn2)C3)n[nH]1 (relative stereo): MET
- C=Cc1cnc(NC(=O)c2cccc(S(=O)(=O)N3CCCCC3)c2)c(OC)c1: MET
- O=C(NC1CCc2ccccc21)c1cccc(S(=O)(=O)N2CCCCC2)c1 (stereo not shown): NOT MET
- O=C1Nc2ccc(-c3cccs3)cc2C(CNC(=O)c2ccc(F)cc2)(C(F)(F)F)O1 (stereo not shown): MET
- CC(C)Cc1cc(C(=O)NCC2(c3ccccc3)CCCN(S(=O)(=O)c3cn(C)cn3)C2)[nH]n1 (stereo not shown): MET
- CC(C)Oc1ccc(NC(=O)c2cccc(S(=O)(=O)N3CCC(F)(F)CC3)c2)cc1: MET
- O=C(Nc1cccc(Cl)c1)c1cccc(S(=O)(=O)N2CCCCC2)c1: NOT MET

====

Across several publications, the following IC50 results were reported for human LCE (Homo sapiens, UniProt Q9H5J4).
outcome-measure: IC50

• N#Cc1nc[nH]c1NC(=O)c1cccc(S(=O)(=O)N2CCCCC2)c1 = 2800 nM
• CC(C)Oc1ccc(NC(=O)[C@@H]2C[C@@H]3CC[C@H]2N(S(=O)(=O)c2cn(C)cn2)C3)cc1 (relative stereo) = 268 nM
• O=C(NCc1ccccc1)c1cccc(S(=O)(=O)N2CCCCC2)c1 = 5500 nM
• O=C1Nc2ccc(Cl)cc2C(CCCNC(=O)c2ccc(F)cc2)(C(F)(F)F)O1 (single isomer, unassigned) = 17 nM
• CC(C)Oc1ccc(C(=O)NCC2(C)CCCN(S(=O)(=O)c3ccccc3)C2)cc1 (stereo not shown) = 51 nM
• Cc1[nH]n(-c2ccc(OC(C)C)cc2)c(=O)c1C1(C(F)(F)F)C(=O)N(c2ccccc2)C2=C1C(=O)CC(C)(C)C2 (stereo not shown) = 30 nM
• COc1cc(Oc2ccccc2)cnc1NC(=O)c1cccc(S(=O)(=O)N2CCCC2)c1 = 210 nM

====

Across several publications, the following IC50 results were reported for human LCE (Homo sapiens).
Field 'label' (enum: MET / NOT MET). Set to MET when IC50 is strictly under 0.2 µM; else NOT MET.

- CC(C)Oc1ccc(NC(=O)c2cccc(S(=O)(=O)N3C[C@H]4C[C@@H]3CO4)c2)cc1: NOT MET
- COc1cccnc1NC(=O)c1cccc(S(=O)(=O)N2C[C@H]3C[C@@H]2CO3)c1: NOT MET
- CC(C)c1ccc(NC(=O)c2cccc(S(=O)(=O)N3CCCC(C(N)=O)C3)c2)cc1 (stereo not shown): MET
- CCCOc1cc(NC(=O)c2cccc(S(=O)(=O)c3ccccn3)c2)[nH]n1: MET
- CC(C)Oc1ccc(NC(=O)[C@@H]2CCC[C@@H](S(=O)(=O)c3ccncc3)C2)nc1 (racemic): MET
- COc1ccccc1NC(=O)c1cccc(S(=O)(=O)C2CCCCC2)c1: NOT MET
- COc1ccc(NC(=O)c2cc(S(=O)(=O)N3CCCCC3)ccc2OC)cc1: NOT MET
- COC[C@H]1CCCN1S(=O)(=O)c1cccc(C(=O)Nc2ccc(C(C)C)cc2)c1: NOT MET
- COc1ccc(NC(=O)c2cccc(S(=O)(=O)N3CCCCC3)c2)cc1: NOT MET
- O=C(Nc1ccccc1)c1cccc(S(=O)(=O)N2CCCCC2)c1: NOT MET
- CC(C)Oc1ccc(NC(=O)c2cccc(S(=O)(=O)c3cn[nH]c3)c2)cc1: NOT MET
- CC(C)Oc1ccc(NC(=O)[C@@H]2CCC[C@@H](S(=O)(=O)c3ccccn3)C2)cc1 (racemic): NOT MET
- Cc1[nH]n(-c2ccc(-c3ccccc3)cc2)c(=O)c1C1(C(F)(F)F)C(=O)N(c2ccccc2)C2=C1C(=O)CC(C)(C)C2 (stereo not shown): MET
- O=C1Nc2ccc(-c3ccn[nH]3)cc2C(CNC(=O)c2ccc(F)cc2)(C(F)(F)F)N1 (single isomer, unassigned): MET
- CC(C)c1ccc(NC(=O)c2cccc(S(=O)(=O)N3CC[C@@H](F)C3)c2)cc1: NOT MET
- CC(C)Oc1ccc(NC(=O)c2cccc(S(=O)(=O)NC(C3CC3)C3CC3)c2)cc1: NOT MET
